- System: OVCAR-8
- assay summary: NCI tumour cell line growth inhibition, 48 h
Calls of active or inactive are those of the source. Rule as the data show it: active = GI50 up to about 1.1 µM and inactive = higher.
Record form. Attribute: GI50. Fill in for each entry.

C=C(C)[C@H]1C2=CC(C(=O)OC)=C(C[C@H](C(=C)C)[C@@H](O)[C@@H](O)C3=C[C@H]1OC3=O)O2
> 100 µM (inactive)
O=C1CCCCC/C1=C\c1cccc([N+](=O)[O-])c1
33 µM (inactive)
CC[As](CC)SCC1OC(OC(C)=O)C(OC(C)=O)C(OC(C)=O)C1OC(C)=O (stereo not given)
16 µM (inactive)
CC1(C)CC(C2CC(C)(C)CC(C)(C)[C@H]2O)[C@@H](O)C(C)(C)C1 (stereo not given in full)
> 100 µM (inactive)

Query molecule follows.
Query: Entry Cc1ccc2c(c1)CN(C(=O)CCC(=O)OCc1ccccc1)c1ccc(C)cc1CN2C(=O)CCC(=O)OCc1ccccc1 : reported GI50 = ?
Result: > 100 µM (inactive)

Where these numbers come from: ChEMBL document CHEMBL1201862
